Assay: yeast display, Sf9 membrane polyspecificity reagent, FACS + sequencing; frameworks hold sequencing errors
Outcome measure: polyreactivity (PSR sort gate)

Use these answered entries as a reference point.
Sequence input: QVQLVESGGGLVQAGGSLRLSCAASGRTFPGNAMGWYRQAPGKEREFFAAITRSGGSTYADSVKGRFTISRDNAKNTVYLQMNSLKPEDTAVSYCAATFKWYSHTKPRFDYWGQGTKVTVSS
polyreactivity (PSR sort gate): low polyreactivity

Sequence input: QVQLEESGGGLVQAGGSLRLSCAASGSTFCYYPMGWYRQAPGKEREFVAAISSSGGSTYYADYVKGRFTISRDNAKNTVYFQMNSLKPEDTAVYYCARVGFPGFYWGQGTEVTVSS
polyreactivity (PSR sort gate): high polyreactivity

Sequence input: QVQHVESGGGLVQAGGSLRLSCAASGLTFLSNAMGWYRPARGNEWELVAAINSGARKFYADSVKGRFTISRDNAKNTVYLQMNCLKPEDTAVYYCNADYGKPSYYDDGDYWGEGTQVTVSS
polyreactivity (PSR sort gate): low polyreactivity

Sequence input: QVQLVESGGGLVQAGGSLRLSCAASGSIFLYYAMGWYIQATGKERELVATITSGGRTSYADSVKGRFTISRDNAKNTVYLKMNSLKPEDTAVYYCAGRYGWFTPYDYWGQGTQVTVSS
polyreactivity (PSR sort gate): high polyreactivity

Sequence input: QVQLVESGGGLVQAGGSLRLSCAASGSIFNGNAMGWYRQAPGKERELVARITSGSSTYYADSVKGRFTISRDNAKNTVYLQMNSLKPEDTAVYYCAAVYGRYISYRWRSLYDYWGQGTQVTVSS
polyreactivity (PSR sort gate): high polyreactivity

Sequence input: QVQLVESGGGLVQEGGSLRLSCAASGFTFTSNAMGWYRQAPGKERELVAAITYSGGITYYADSVKGRFTISRDNAKNTVYLQMNSLKPEDTAVYYCAADSTPYVLSGNYDYWGQGTQVTVSS
polyreactivity (PSR sort gate): low polyreactivity

**Query** Query (sequence): QVQLVESGGGLVQAGGSLRLRCAASGRTFYGYDMGWYRQAPGKERELVATISSGGSTNYADSVKGRFTFSRDNAKNTVYLQMNSLKPEDTAVYYCNADRYVDPRTYFGYDYCGQGTQVTVSS ; field requested: polyreactivity (PSR sort gate)
**Result** low polyreactivity

**Query** Query (sequence): QVQLVESGGGLVQAGGSLRLRCAASGGTFNVYAMGWYRQAPGKERELVARITWNGGRTSYADSVKGRFTISRDNAKNTVYLQMNSLKPEDTAVYFCAAETRYKRIYPYGRATEDYWGQGTQVTVSS ; field requested: polyreactivity (PSR sort gate)
**Result** high polyreactivity

**Query** Query (sequence): QVQLVESGGGLVQAGGSLRLSCAASGRIFTGYAMGWYRQAPGKERELVAAINWSGGSTYYADSVKGRFTISRDNAKNTVYLQMNSLKPADTAVYYCNAGYVFSGSYYKYDYWGQGTQVTVSS ; field requested: polyreactivity (PSR sort gate)
**Result** high polyreactivity

**Query** Query (sequence): QVQLVESGGGLVQAGGSLRLSCAASGIIFSSYVMGWYRQAPGKERELVAAISSRGVSTYYADSVKGRFTISRDNAKNTVYLQMNSLKPEDTAVYYCAGVGPSYVRYYYWGQGTQVTVSS ; field requested: polyreactivity (PSR sort gate)
**Result** high polyreactivity

**Query** Query (sequence): QVQLVESGGGLVQAGGSLRLSCAASGSIFNAYDMGWYRQAPGKERELVAGISSSDSTYYADSVKGRFTISRDNAKNTVYLQMNSLKPEDTAVYYCAADPVFAAAYIHLYGIYDSWGQGTQVTVSS ; field requested: polyreactivity (PSR sort gate)
**Result** low polyreactivity
